Provide the recorded Crabgrass plant response rating for the entries that follow.
Test system: crabgrass (Digitaria sanguinalis)
Method summary: Test B pre-/postemergence
Format: in vivo
Design: key: 0 is no effect; 10 is complete control
Experimental conditions: Rate 125 g/ha, Postemergence
One number for each entry.

Provide the reported Crabgrass plant response rating of each entry below, same order.
1. O=C(c1cccc(C(F)(F)F)c1)c1ccnc(-c2ccc(F)cc2F)n1
2. N#Cc1ccc(-c2nccc(C(=O)c3cccc(C(F)(F)F)c3)n2)cc1
3. Cc1cnc(-c2ccc(C(F)(F)F)cc2)nc1C(=O)c1cccc(OC(F)(F)F)c1

Reply:
1. 0
2. 0
3. 4

Count: 2. Required value per item: Crabgrass plant response rating.
1. Cc1cnc(-c2ccc(C(F)(F)F)cc2)nc1Cn1ccc(C#N)n1
2. Cc1cnc(-n2cnc(C(F)(F)F)n2)nc1C(=O)c1cccc(C(F)(F)F)c1

Reply:
2
9

Ask: State the recorded Crabgrass plant response rating for this entry: `Cc1cnc(-n2ccc(C(F)(F)F)n2)nc1C(=O)c1ccc(C(F)(F)F)cc1`
Reply: 1

###

Test system: windgrass (Apera spica-venti)
Method summary: Test D
Type: in vivo
Parameters: key: 0 is no effect; 100 is complete control
Experimental conditions: PREEMERGENCE, Rate 62 g/ha
Property: Plant response rating, Windgrass

Cc1cnc(-c2ccc(C(F)(F)F)cc2)nc1Cc1cccc(C(F)(F)F)c1 : 100
CCc1cnc(-n2ccc(C(F)(F)F)n2)nc1Cc1cccc(C(F)(F)F)c1 : 100
CCc1cnc(-c2ccc(C(F)(F)F)cc2)nc1Cc1cccc(C(F)(F)F)c1 : 20

Kindly review the next molecule as well.
Ask: Any idea what its Plant response rating, Windgrass is? The molecule is `Cc1cnc(-n2ccc(C(F)(F)F)n2)nc1Cn1ccc(C(F)(F)F)n1`
Reply: 100

###

System: cotton (Gossypium hirsutum)
Method summary: Test C
Format: in vivo
Set-up: key: 0 was no effect; 100 was complete control
Experimental conditions: PREEMERGENCE, Rate 35 g/ha
Property: Plant response rating, Cotton
One number for each entry.

Before answering, review these 3 worked examples.
Cc1cnc(-c2ccc(C(F)(F)F)cc2)nc1C(Cl)c1cccc(C(F)(F)F)c1 (racemic) : 0
Cc1cnc(-c2ccc(C(F)(F)F)cc2)nc1Cn1ccc(C(F)(F)F)n1 : 10
CCc1cnc(-n2ccc(C(F)(F)F)n2)nc1Cc1cccc(C(F)(F)F)c1 : 0

Next, consider the following compound.
Ask: Give the measured Plant response rating, Cotton of `Cc1cnc(-c2ccc(C(F)(F)F)cc2)nc1Cc1cccc(OC(F)(F)F)c1` .
Reply: 5

###

System: pigweed (Amaranthus retroflexus)
Method summary: Test B pre-/postemergence
Assay type: in vivo
Experimental conditions: Rate 125 g/ha, Preemergence
Give measured Plant response rating, Redroot pigweed for each item. Keep answers brief.
Answers are plain numbers.

Past entries and their recorded results:
Cc1cnc(-c2ccc(C(F)(F)F)cc2)nc1Cn1cc(Br)cn1 [Compound 54] : 2
CCc1cnc(-n2ccc(C(F)(F)F)n2)nc1C(=O)c1cccc(C(F)(F)F)c1 [Compound 69] : 10
O=C(c1cccc(C(F)(F)F)c1)c1ccnc(-n2ccc(C(F)(F)F)n2)n1 [Compound 70] : 0

Provide each entry's Plant response rating, Redroot pigweed from the list below.
1. Cc1cnc(-n2cnc(C(F)(F)F)n2)nc1Cn1ccc(C(F)(F)F)n1 [Compound 51]
2. Cc1cnc(-n2ccc(C(F)(F)F)n2)nc1C(=O)c1cccc(OC(F)(F)F)c1 [Compound 66]

Reply:
1. 10
2. 9

Ask: Any idea what Plant response rating, Redroot pigweed came out for CCc1cnc(-n2ccc(C(F)(F)F)n2)nc1C(=O)c1cccc(C#N)c1 [Compound 72] on pigweed (Amaranthus retroflexus)?
Reply: 9

###

Test system: johnson grass (Sorghum halepense)
Method summary: Test E pre-/postemergence/post directed
Format: in vivo
Experimental conditions: PREEMERGENCE, Rate 32 g/ha
Given measured Plant response rating, Johnsongrass, output fulfilled if it is greater than or equal to 30 and not fulfilled if not.

Here are 4 molecules together with their reported answers.
Cc1cnc(-c2ccc(C(F)(F)F)cc2)nc1Cc1cccc(OC(F)(F)F)c1 : fulfilled
Cc1cnc(-c2ccc(C(F)(F)F)cc2)nc1Cc1cccc(C(F)(F)F)c1 : not fulfilled
Cc1cnc(-n2cnc(C(F)(F)F)n2)nc1C(=O)c1cccc(C(F)(F)F)c1 : fulfilled
COc1cnc(-c2ccc(C(F)(F)F)cc2)nc1Cc1cccc(C(F)(F)F)c1 : fulfilled

Ask: Textbook exercise: given the entry `Cc1cnc(-c2ccc(C(F)(F)F)cc2)nc1Cn1ccc(C(F)(F)F)n1` , state whether its Plant response rating, Johnsongrass is greater than or equal to 30.
Reply: fulfilled

###

Kindly supply the reported Plant response rating, Rape values for the records listed here.
Tested on: rape (Brassica napus)
Method summary: Test B pre-/postemergence
Type: in vivo
Experimental conditions: Rate 250 g/ha, Postemergence
Give bare numbers.

Some compounds with known Plant response rating, Rape results, for comparison:
Cc1cnc(-n2cnc(C(F)(F)F)c2)nc1C(=O)c1cccc(OC(F)(F)F)c1 [Compound 63] : 8
Cc1cnc(-c2ccc(F)cc2F)nc1Cc1cccc(C(F)(F)F)c1 [Compound 31] : 9
Cc1cnc(-c2ccc(C(F)(F)F)cc2)nc1C(C#N)c1cccc(C(F)(F)F)c1 (racemic) [Compound 17] : 8
Cc1cnc(-c2ccc(Cl)cc2)nc1Cn1ccc(C(F)(F)F)n1 [Compound 6] : 8

Look up Plant response rating, Rape for the entries below, preserving their order.
1. Cc1cnc(-c2ccc(Cl)cc2)nc1Cc1cccc(C(F)(F)F)c1 [Compound 28]
2. Cc1cnc(-n2ccc(C(F)(F)F)n2)nc1C(=O)c1ccc(C(F)(F)F)cc1 [Compound 65]
3. Cc1cnc(-c2ccc(C(F)(F)F)cc2)nc1Cn1nc(C(F)(F)F)cc1C [Compound 13]
4. Cc1cnc(-c2ccc(C(F)(F)F)cc2)nc1Cc1cccc(C(F)(F)F)c1 [Example 1]
5. Cc1cnc(-n2ccc(C(F)(F)F)n2)nc1Cc1cccc(OC(F)(F)F)c1 [Compound 42]

Reply:
1: 10; 2: 2; 3: 9; 4: 9; 5: 10

Working through the 2 compounds below one at a time, give Plant response rating, Rape for each.
1. Cc1cnc(-c2ccc(C(F)(F)F)cc2)nc1Cn1cnc(C(F)(F)F)n1 [Compound 11]
2. Cc1cnc(-c2ccc(C(F)(F)F)cc2)nc1C(Cl)c1cccc(C(F)(F)F)c1 (racemic) [Compound 21]

Reply:
10
10

###

Tested on: wild oat (Avena fatua)
Method summary: Test B pre-/postemergence
Format: in vivo
Experimental conditions: Rate 250 g/ha, Postemergence
Please go through the items and note down their Plant response rating, Wild oats.
Answers are plain numbers.

Worked examples, 3 compounds total:
Cc1cnc(-n2cnc(C(F)(F)F)c2)nc1C(=O)c1cccc(OC(F)(F)F)c1 [Compound 63] : 2
COC(=O)C(c1cccc(C(F)(F)F)c1)c1nc(-c2ccc(C(F)(F)F)cc2)ncc1C (racemic) [Compound 18] : 5
CCc1cnc(-n2ccc(C(F)(F)F)n2)nc1C(=O)c1cccc(C#N)c1 [Compound 72] : 4

Shift focus to the following entry.
Ask: Requested field: Plant response rating, Wild oats. Item: Cc1cnc(-c2ccc(C(F)(F)F)cc2)nc1Cn1nc(C(F)(F)F)cc1C [Compound 13]
Reply: 4

###

System: wheat (Triticum aestivum)
Method summary: Test B pre-/postemergence
Format: in vivo
Experimental conditions: Rate 125 g/ha, Postemergence
Assign Satisfied whenever Wheat plant response rating does not fall below 3; assign Not satisfied whenever it does.

Illustrative cases are given below, each with its answer.
Cc1cnc(-c2ccc(C#N)cc2)nc1Cc1cccc(C(F)(F)F)c1 [Compound 30] : Not satisfied
N#Cc1ccc(-c2nccc(C(=O)c3cccc(C(F)(F)F)c3)n2)cc1 [Compound 78] : Not satisfied
Cc1cnc(-n2ccc(C(F)(F)C(F)(F)F)n2)nc1C(=O)c1cccc(OC(F)(F)F)c1 [Compound 62] : Not satisfied

Ask: Hi, just wondering whether O=C(c1cccc(C(F)(F)F)c1)c1ccnc(-c2ccc(C(F)(F)F)cc2)n1 [Compound 77] shows Wheat plant response rating of 3 or higher.
Reply: Not satisfied

Ask: Hello, I need to know if Cc1cnc(-c2ccc(C(F)(F)F)cc2)nc1Cn1cc(Br)cn1 [Compound 54] has measured Wheat plant response rating not below 3. Thanks!
Reply: Not satisfied

Ask: Entry Cc1cnc(-n2cnc(C(F)(F)F)n2)nc1Cn1ccc(C(F)(F)F)n1 [Compound 51] : is its Wheat plant response rating no less than 3?
Reply: Satisfied

Ask: Reported Wheat plant response rating at or above 3? CCc1cnc(-n2ccc(C(F)(F)F)n2)nc1Cc1cccc(OC(F)(F)F)c1 [Compound 47]
Reply: Satisfied

Ask: hey, is Wheat plant response rating for this one >= 3? Cc1cnc(-c2ccc(C(F)(F)F)cc2)nc1C(=O)c1ccc(C(F)(F)F)cc1 [Compound 74]
Reply: Not satisfied

###

Test system: crabgrass (Digitaria sanguinalis)
Method summary: Test B pre-/postemergence
Assay type: in vivo
Experimental conditions: Rate 125 g/ha, Postemergence
Property: Plant response rating, Crabgrass
Answers are plain numbers.

Record excerpt, results attached:
Cc1cnc(-c2ccc(F)c(Cl)c2)nc1Cc1cccc(C#N)c1 : 1
Cc1cnc(-c2ccccc2)nc1Cn1ccc(C(F)(F)F)n1 : 0
Cc1cnc(-c2ccccc2F)nc1Cc1cccc(C(F)(F)F)c1 : 1

Give me Plant response rating, Crabgrass for each of these molecules, listed below.
1. Cc1cnc(-c2cccc(C(F)(F)F)c2)nc1Cc1cccc(C#N)c1
2. Cc1cnc(-c2ccc(F)c(Cl)c2)nc1Cc1cccc(C(F)(F)F)c1
3. Cc1cnc(-c2ccc(Cl)c(Cl)c2)nc1Cc1cccc(C#N)c1
4. Cc1cnc(-n2ccc(C(F)(F)F)n2)nc1Cc1cccc(OC(F)(F)F)c1
5. Cc1cnc(-c2ccc(C(F)(F)F)cc2)nc1Cn1ccc(C(F)(F)F)n1
6. Cc1cnc(-c2ccc(F)cc2F)nc1Cc1cccc(C(F)(F)F)c1

Reply:
0
7
0
7
9
8
